System: Kluyveromyces marxianus
ASSAY PROCEDURE: Minimal inhibitory effect against the Candida pseudotropicalis (2371E).
Assay type: functional
API: label(entry) gives 1.0 if the entry's MIC is strictly smaller than 60 ng/mL; on equality or larger values it gives 0.0.

CC(C)C1=CC2CC3(C=O)[C@@H]4CC[C@@H](C)[C@H]4CC2(CO[C@H]2C[C@H]4[C@H](OCC4(C)C)[C@@H](C)O2)C13C(=O)O (stereo partly specified) | 1.0

**Q:** Strictly below 60 ng/mL: is that where MIC of CC(C)C1=CC2CC3(C=O)[C@@H]4CC[C@@H](C)[C@H]4CC2(CO[C@H]2C[C@@H]4OC(C)(C)O[C@@H]4[C@@H](C)O2)C13C(=O)O (stereo partly specified) sits?
**A:** 1.0

**Q:** Strictly below 60 ng/mL: is that where MIC of CC(C)C1=CC2CC3(C=O)[C@@H]4CC[C@@H](C)[C@H]4CC2(CO[C@H]2C[C@@H]4OC[C@@H](C)[C@@H]4[C@@H](C)O2)C13C(=O)O (stereo partly specified) sits?
**A:** 1.0

**Q:** Strictly below 60 ng/mL: is that where MIC of CC(C)C1=CC2CC3(C=O)[C@@H]4CC[C@@H](C)[C@H]4CC2(CO[C@H]2C[C@H]4[C@H](OC[C@H]4C)[C@@H](C)O2)C13C(=O)O (stereo partly specified) sits?
**A:** 1.0
